test_system: PQQGDH (Acinetobacter calcoaceticus)
Sequence (P13650 25-478): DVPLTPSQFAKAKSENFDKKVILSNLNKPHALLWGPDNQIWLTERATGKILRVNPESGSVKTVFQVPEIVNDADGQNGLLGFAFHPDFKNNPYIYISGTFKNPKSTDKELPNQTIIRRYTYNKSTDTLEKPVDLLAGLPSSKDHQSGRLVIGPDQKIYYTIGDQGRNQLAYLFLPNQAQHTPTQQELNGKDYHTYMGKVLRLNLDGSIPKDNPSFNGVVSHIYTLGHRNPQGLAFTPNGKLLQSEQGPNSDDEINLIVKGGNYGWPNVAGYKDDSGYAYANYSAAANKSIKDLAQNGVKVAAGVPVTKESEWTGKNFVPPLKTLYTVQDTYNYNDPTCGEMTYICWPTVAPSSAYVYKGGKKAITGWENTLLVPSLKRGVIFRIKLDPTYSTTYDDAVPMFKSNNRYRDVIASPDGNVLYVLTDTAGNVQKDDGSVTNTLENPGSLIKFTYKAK
run_description: biochemical
Measured pKi of individual entries
When answering, recall that pKi equals minus log10 of the concentration in mol/L, and write that number alone.

Query: Given O=C[C@H](O)[C@@H](O)[C@H](O[C@@H]1O[C@H](CO)[C@@H](O)[C@H](O)[C@H]1O)[C@H](O)CO , state its recorded pKi.
Reply: 1.96

Query: Let us now turn to OC[C@H]1O[C@@H](O[C@H]2[C@H](O)[C@@H](O)C(O)O[C@@H]2CO)[C@H](O)[C@@H](O)[C@H]1O (some centres unmarked)
Reply: 1.60
